measure-name: melting point

I'd like to know its melting point. The molecule in question is Cc1noc2cc3c(cc12)C1(CO3)C(=O)N(Cc2cnccn2)c2ccccc21 (centres unmarked) [Example 9.56]
170 to 173 °C

Sample Cc1nc(CN2C(=O)C3(COc4cc5c(cc43)OCO5)c3ccccc32)c(C(F)(F)F)o1 (centres unmarked) [Example 1.9] — what was its melting point?
136 to 137 °C

Consider the molecule shown here: Cc1nc2cc3c(cc2o1)C1(CO3)C(=O)N(C(c2ccccc2)c2ccccc2)c2ccccc21 (centres unmarked) [Example 2.14] What is its recorded melting point?
240 to 242 °C

Record request: melting point value, item O=C1N(Cc2ccc(C(F)(F)F)o2)c2cc3c(cc2C12COc1cc4c(cc12)CCO4)OCCO3 (centres unmarked) [Example 2.25]
189 to 191 °C

Entry under review: COc1ccccc1NC(=O)c1ccccc1CN1C(=O)C2(COc3cc4c(cc32)CCO4)c2ccccc21 (centres unmarked) [Example 12.11] . Reported melting point?
172 to 174 °C

What does the data say about its melting point? Entry: CN1CCO[C@H](CN2C(=O)[C@@]3(COc4cc5c(cc43)OCCO5)c3ccccc32)C1 [Example 11.106]
85 to 90 °C

Looking for the measured melting point of O=C1N(Cc2ccccc2C(F)(F)F)c2ccccc2[C@@]12COc1cc3c(cc12)OCCO3 [Example 4.114] , can you help?
137 to 138 °C

# input molecule: COCCOCCN1C(=O)C2(COc3cc4c(cc32)OCCO4)c2c(OC)cc(OC)cc21 (centres unmarked) [Example 9.73] ; wanted: its melting point
158 to 160 °C

* * *

Answer each item with its documented melting point.

// lookup melting point for O=C1N(CC2CNCCO2)c2ccccc2C12COc1cc3c(cc12)OCCO3 (stereo not drawn) [Example 11.102]
154 to 159 °C

Name the recorded melting point for O=C1N(Cc2ccc(=O)[nH]c2)c2ccccc2C12COc1cc3c(cc12)OCCO3 (stereo not drawn) [Example 35] .
249 to 250 °C

Could you tell me which melting point is on file for Cc1noc2cc3c(cc12)C1(CO3)C(=O)N(Cc2ccc(-c3ccno3)cc2)c2ccccc21 (stereo not drawn) [Example 4.99] ?
192 to 194 °C

Which measured melting point value corresponds to O=C1N(Cc2cccc(O)c2)c2ccccc2C12COc1cc3c(cc12)CCO3 (stereo not drawn) [Example 11.45] ?
225 to 227 °C

Item under review: CN1C(=O)C2(COc3cc4c(cc32)OCCO4)c2c(C#N)cccc21 (stereo not drawn) [Example 16.71] . Reported melting point?
196 to 197 °C

So what's the measured melting point for this one? CN1C(=O)C2(COc3cc4c(cc32)OCCO4)c2c(C(=O)NCc3ccc(F)cc3)cccc21 (stereo not drawn) [Example 16.44]
149 to 150 °C

Entry O=C1N(Cc2cccc(-c3noc(C(F)(F)F)n3)c2)c2ccccc2C12COc1cc3c(cc12)CCO3 (stereo not drawn) [Example 11.28] has what melting point?
182 to 188 °C

Would you kindly share the measured melting point for COc1cc2c(cc1F)C1(CO2)C(=O)N(Cc2ccccc2)c2ccccc21 (stereo not drawn) [Example 4.67] ?
160 to 162 °C

Please report the recorded melting point for CS(=O)(=O)c1cccnc1CN1C(=O)C2(COc3cc4c(cc32)OCCO4)c2ccccc21 (stereo not drawn) [Example 11.79] .
> 250 °C

Using the record for CC1(C)OC[C@H](CN2C(=O)C3(COc4cc5c(cc43)OCCO5)c3ccccc32)O1 (stereo partly drawn) [Example 9.45] , report its melting point.
55 to 57 °C

Dear colleague, I am looking for the recorded melting point of the following molecule: CN1C(=O)C2(COc3cc4c(cc32)OCCO4)c2c(NC(=O)C(C)(C)C)cccc21 (stereo not drawn) [Example 16.31]
182 to 184 °C

Please report the recorded melting point for CN1C(=O)[C@@]2(COc3cc4c(cc32)OCO4)c2c(Br)cccc21 [Example 16.63] .
226 to 228 °C

Dear colleague, I am looking for the recorded melting point of the following molecule: O=C1N(Cc2cnccn2)c2ccccc2[C@]12COc1cc3c(cc12)OCCO3 [Example 5.16]
216 to 218 °C

Endpoint output: melting point of Cc1ccc(NC(=O)CN2C(=O)C3(COc4cc5c(cc43)CCO5)c3ccccc32)c(C)c1 (stereo not drawn) [Example 12.54] . Value?
277 to 279 °C

What does the record list as melting point for COCCOc1ccc2c(c1)OCC21C(=O)Nc2ccccc21 (stereo not drawn) [Example 3.46] ?
172 to 174 °C

# input molecule: CN1C(=O)C2(COc3cc4c(cc32)OCCO4)c2c1cccc2-n1ccccc1=O (stereo not drawn) [Example 16.18] ; wanted: its melting point
212 to 214 °C

For the molecule shown here, CN1C(=O)C2(COc3cc4c(cc32)OCCO4)c2c(NC(=O)C3CCC3)cccc21 (stereo not drawn) [Example 16.20] , give the reported melting point.
234 to 236 °C

Using the record for O=C1N(c2ccc(F)cc2)c2ccccc2C12COc1cc3c(cc12)OCCO3 (stereo not drawn) [Example 2.45] , report its melting point.
210 to 212 °C

For the molecule COc1cc2c(cc1F)C1(CO2)C(=O)N(Cc2ccc(C(F)(F)F)o2)c2ccccc21 (stereo not drawn) [Example 9.30] , what melting point is on record?
45 to 47 °C

Please report the recorded melting point for COc1ccc(CN2C(=O)C3(COc4cc5c(cc43)OCO5)c3ccccc32)cc1 (stereo not drawn) [Example 7] .
147 to 148 °C

# get_value(readout='melting point', item= CC(C)NC(=O)N1CCC(CN2C(=O)C3(COc4cc5c(cc43)CCO5)c3ccccc32)C1 (stereo not drawn) [Example 11.62] )
107 to 115 °C

What does the data say about its melting point? Entry: O=C1Nc2ccccc2C12COc1cc3c(cc12)OCCO3 (stereo not drawn) [Example 3.10]
> 250 °C

Record request: melting point value, item O=C1N(Cc2nnc(C(F)(F)F)o2)c2ccccc2C12COc1cc3c(cc12)OCCO3 (stereo not drawn) [Example 11.92]
137 to 139 °C

Look up melting point for this molecule: O=C1N(Cc2ccccn2)c2ccccc2C12COc1cc3c(cc12)OCC3 (stereo not drawn) [Example 4.52]
198 to 200 °C

Need melting point of CCCCNC(=O)c1ccccc1CN1C(=O)C2(COc3cc4c(cc32)CCO4)c2ccccc21 (stereo not drawn) [Example 12.18] , thanks.
176 to 178 °C

Fill blank: measured melting point of the molecule O=C1N(C[C@H]2CCCO2)c2cc(F)ccc2C12COc1cc3c(cc12)CCO3 (stereo partly drawn) [Example 9.19] is ____.
137 to 139 °C

Could you share which melting point value was measured for N#Cc1csc(CN2C(=O)C3(COc4cc5c(cc43)OCO5)c3ccccc32)c1 (stereo not drawn) [Example 11.74] ?
207 to 209 °C

Given the entry CN1C(=O)C2(COc3cc4c(cc32)OCCO4)c2c(OCc3ccccn3)cccc21 (stereo not drawn) [Example 16.85] , report its measured melting point.
181 to 183 °C

Requested read-out: melting point. Entry: CC1(C)O[C@H]2[C@@H](O1)[C@@H](CN1C(=O)C3(COc4cc5c(cc43)OCCO5)c3ccccc31)O[C@@H]1OC(C)(C)O[C@@H]12 (stereo partly drawn) [Example 19]
112 to 118 °C

Which melting point is reported for this molecule? CN(C)c1ccc(-c2cccc3c2C2(COc4cc5c(cc42)OCO5)C(=O)N3)cn1 (stereo not drawn) [Example 16.14]
> 245 °C

Quick check: melting point of NC(=O)c1cc(CN2C(=O)C3(COc4cc5c(cc43)OCO5)c3ccccc32)oc1C(F)(F)F (stereo not drawn) [Example 12.58] ?
172 to 174 °C

Please look up its melting point: COc1ccc2c(c1)OCC21C(=O)N(Cc2ccccn2)c2ccccc21 (stereo not drawn) [Example 9.33]
122 to 123 °C

# melting point lookup, item O=C1N(Cc2sccc2Cl)c2ccccc2C12COc1cc3c(cc12)OCO3 (stereo not drawn) [Example 6.3]
161 to 163 °C
